From: patent US4363805A

Test system: mongrel cats
procedure.details: Inotropic and heart-circulatory effectiveness on narcotised cats, intravenous
Assay type: in vivo, cat
run.conditions: 0.25 mg/kg i.v.; 6 animals
quantity: heart frequency Δ

Prompt: For mongrel cats, give heart frequency Δ of the listed compound: C=CCc1ccccc1OCC(O)CN[C@H]1CO[C@H]2[C@@H]1OC[C@@H]2O[N+](=O)[O-] (stereo partly shown) [Example 49]
Response: +0.8 min^-1

Prompt: For mongrel cats, give heart frequency Δ of the listed compound: CCOc1ccccc1OCC(O)CN[C@H]1CO[C@H]2[C@@H]1OC[C@@H]2O[N+](=O)[O-] (stereo partly shown) [Example 47]
Response: +1.4 min^-1

Prompt: For mongrel cats, give heart frequency Δ of the listed compound: O=[N+]([O-])O[C@H]1CO[C@H]2[C@@H]1OC[C@H]2NCC(O)COc1cccc2ccccc12 (stereo partly shown) [Example 55]
Response: +3.0 min^-1

Prompt: For mongrel cats, give heart frequency Δ of the listed compound: N#Cc1ccccc1OCC(O)CN[C@H]1CO[C@H]2[C@@H]1OC[C@@H]2O[N+](=O)[O-] (stereo partly shown) [Example 50]
Response: +4.6 min^-1
